Assign EC50 to each entry below.
assay-target: Claudin18.2-His protein (human)
test-summary: indirect ELISA on coated Claudin18.2-His
The reply should contain only the number, in µg/mL.

get_value(item= 419A5F3 (antibody, V domains shown) VH: DVQLVESGGGLVQPGGSRKLSCAASGFTFSGFGMHWIRQTPEKGLEWVAYISSDSRPIYYADTVKGRFTISRDNPKNTLFLQMTSLRSEDTAMYFCGRFYYGNSFDHWGQGTLVTVSA VL: DIVMTQSPSFLTVTAGEKVTLSCRSSQSLLNSGNQRNYLTWYQQKPGQPPKLLIYWASTRESGVPDRFTGSGSGTDFTLTISSVQAEDRALYYCQNAYSFPLTFGTGTKLELR , readout=EC50) returns 0.00551

For record 422E8F9 (antibody, V domains shown) VH: DVQLVESGGGLVQPGGSRKLSCAASGFTFSGFGMHWIRQTPEKGLEWVAYISSGSRPIYYADTVQGRFTISRDNPKNTLFLQMTSLRSEDTAMYFCARFYYGNSFDHWGQGTLVTVSS VL: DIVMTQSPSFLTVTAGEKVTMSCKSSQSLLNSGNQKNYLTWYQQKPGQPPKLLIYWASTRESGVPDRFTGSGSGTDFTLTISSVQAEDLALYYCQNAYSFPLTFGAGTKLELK the listed EC50 is 0.00873

Please fill in: EC50 reported for 275B2G2 (antibody, V domains shown) VH: EVMLVESGGGLVKPGGSLKLSCAASGFTFRDYTMSWVRQTPEKRLEWVATSIIGGTYTYYPDSVKGRFTISRDNVKNTLYLQMSSLRSEDTAMYYCSRLGRGNAMDYWGQGTSVTVSS VL: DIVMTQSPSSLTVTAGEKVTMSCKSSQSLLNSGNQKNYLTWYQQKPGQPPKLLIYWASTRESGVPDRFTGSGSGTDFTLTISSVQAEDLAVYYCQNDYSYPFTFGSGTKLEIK = 0.028

EC50 for 185F2G12 (antibody, V domains shown) VH: QAYLQQSGAELVRSGASVKMSCKASGYTFTSYNMHWVRQTPGQGLEWIGYIYPGNGGTNYSQKFKGKASLTADTSSTTAYMQISSLTSEDSAVYFCATGRGFAYWGQGTLVTVSA VL: DIVMTQSPSSLTVTAGEKVTLSCKSSQSLFNTGNQKNYLTWYQQKPGQPPKLLIFRASTRESGVPDRFTGSGFGTDFTLTISSVQAEDLAVYYCQNDFSYPLTFGAGTKLELK is 0.0193

# EC50 (binder: 393C2C5 (antibody, V domains shown) VH: DVQLVESGGGLVQPGGSRKLSCAASGFTFSSFGMHWVRQAPEKGLEWVAYISSGSSPIYYADTVKGRFTISRDNPKNTLFLQMTSLRSEDTAMYFCATFYYGNSFAYWGQGTLVTVSA VL: DIVMTQSPSSLTVTAGEKVTMSCKSSQTLLNSGNQKNYLTWYQQKSGQPPKLLIYWASTRESGVPDRFTGSGSGTDFTLTISSVQAEDLAVYYCQNAYSYPVTFGSGTKVELK ) is 0.0504
